Biological target: HIV-integrase (Human immunodeficiency virus type 1 group M subtype B, UniProt P12497)
Construct: Recombinant integrase (0.26 ng) was incubated with the beads
Experiment: HIV-Integrase Inhibition Activity (SPA bead integration assay with P33 labeled target DNA)
Assay type: biochemical
Conditions: recombinant integrase, class symbols; read-out: in vitro activity
Parameter: IC50. Scope: all listed entries.

[
  {
    "compound": "O=C(NC12CCC(CC1)Cn1c2nc(C(=O)NCc2ccc(F)cc2)c(O)c1=O)c1ncccn1 [Example 311]",
    "IC50": "< 0.01 µM"
  },
  {
    "compound": "CC(=O)N1CCC[C@H]1C(=O)NC12CCC(CC1)Cn1c2nc(C(=O)NCc2ccc(F)cc2)c(O)c1=O [Example 255]",
    "IC50": "< 0.01 µM"
  },
  {
    "compound": "CN1CCN(C(=O)C(=O)NC23CCC(CC2)Cn2c3nc(C(=O)NCc3ccc(F)cc3)c(O)c2=O)CC1 [Example 71]",
    "IC50": "< 0.01 µM"
  },
  {
    "compound": "Cc1ccc(C(=O)NC23CCC(CC2)Cn2c3nc(C(=O)NCc3ccc(F)cc3)c(O)c2=O)o1 [Example 237]",
    "IC50": "< 0.01 µM"
  },
  {
    "compound": "O=C(NCc1ccc(F)cc1)c1nc2n(c(=O)c1O)CC1CCC2(NC(=O)C2CCCN2C(=O)C2CC2)CC1 (stereo not shown) [Example 407]",
    "IC50": "< 0.01 µM"
  },
  {
    "compound": "CC(=O)N[C@H]1CCN(C(=O)C(=O)NC23CCC(CC2)Cn2c3nc(C(=O)NCc3ccc(F)cc3)c(O)c2=O)C1 [Example 68]",
    "IC50": "< 0.01 µM"
  },
  {
    "compound": "COc1ccc(CNC(=O)c2nc3n(c(=O)c2O)CC2CCC3(NC(=O)C(=O)N(C)C)CC2)cc1 [Example 375]",
    "IC50": "< 0.01 µM"
  },
  {
    "compound": "CN(C)C(=O)C(=O)NC12CCC(CC1)Cn1c2nc(C(=O)NCc2ccc(F)cc2S(C)(=O)=O)c(O)c1=O [Example 117]",
    "IC50": "0.01 to 0.1 µM"
  },
  {
    "compound": "CN(C)C(=O)C(=O)NC12CCC(CC1)Cn1c2nc(C(=O)NCc2cccc(-n3cccc3)c2)c(O)c1=O [Example 126]",
    "IC50": "< 0.01 µM"
  },
  {
    "compound": "O=C(NC12CCC(Cn3c1nc(C(=O)NCc1ccc(F)cc1)c(O)c3=O)OC2)OCc1ccccc1 (stereo not shown) [Example 219]",
    "IC50": "0.01 to 0.1 µM"
  }
]

response.value for CCN(CC)C(=O)C(=O)NC12CCC(CCn3c1nc(C(=O)NCc1ccc(F)cc1)c(O)c3=O)C2 (stereo not shown) [Example 201] (field: IC50) = < 0.01 µM

Sample CN1CCC[C@@H]1C(=O)NC12CCC(CC1)Cn1c2nc(C(=O)NCc2ccc(F)cc2)c(O)c1=O [Example 257] ; IC50 observed: 0.01 to 0.1 µM

IC50 reading for CN(C)C(=O)C(=O)NC12CCC(CC1)Cn1c2nc(C(=O)NCCCc2ccc(Cl)c(Cl)c2)c(O)c1=O [Example 131] : 0.01 to 0.1 µM
